target: T1, human GPRC5D (human, UniProt Q9NZD1 1-345); assay: FACS, HEK293T-hGPRC5D cells
T1 construct: whole, on cells; also called hGPRC5D; G-protein coupled receptor family C group 5 member D
T1 sequence (Q9NZD1 whole entry): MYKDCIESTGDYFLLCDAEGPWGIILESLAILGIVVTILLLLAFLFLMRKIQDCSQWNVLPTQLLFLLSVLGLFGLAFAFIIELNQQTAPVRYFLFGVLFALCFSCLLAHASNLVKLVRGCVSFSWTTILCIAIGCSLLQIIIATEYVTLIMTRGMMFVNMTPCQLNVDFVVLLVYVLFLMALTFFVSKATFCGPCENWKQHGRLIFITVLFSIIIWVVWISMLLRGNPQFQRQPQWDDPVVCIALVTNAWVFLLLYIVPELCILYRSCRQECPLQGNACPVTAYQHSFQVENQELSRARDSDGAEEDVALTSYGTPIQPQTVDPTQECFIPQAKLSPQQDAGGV
property: % Positive (%)
Numeric answer only, unit % assumed.

Some solved entries appear below for comparison.
12G12C2 (antibody, V domains shown, Mouse monoclonal antibody from hybridoma subclone) VH: QIQLVQSGPELKMPGETVKISCKASGYTFTTYGLSWVKQAPGKGLKWMGWINTFSGVPIYADDFKGRFAFSLETSASTAYLQINNLKNEDTATYFCARWGIRQRGDYWGQGATLTVSS VL: QIVLTQSPAIMSASPGEKVTMTCSASSSVSYLHWYQQKSGTSPKRWIYDTSKLASGVPVRFSGSGSETSYSLTISSMEAEDAATYYCQQWTSNPPTFGGGTKLEIK = 98.7
87A3G8 (antibody, V domains shown, Mouse monoclonal antibody from hybridoma subclone) VH: QVQLKESGPGLVAPSQSLSITCTVSGFSLSSYSVYWVRQPPGKGLEWLGVIWAGGSTNYNSALMSRLSINKDKSKSQVFLKMNSLQTDDSAIYYCAMRWLPRGLDFWGQGTSVTVSS VL: DIVMTQSHKFMSTSVGDRVSITCKASQDVGTAVAWYQQKPGQSPKLLIYWASTRHTGVPDRFTGSGSGTDFTLTISNVQSEDLADYFCQQYSTYYTFGGGTKLEIK = 88.6

# % Positive (binder: 26E2H6 (antibody, V domains shown, Mouse monoclonal antibody from hybridoma subclone) VH: EVQLVESGGDLVKPGGSLKLSCAASGFTFSSYGMSWVRQTPDKRLEWVATISSGGSYTYYPDSVKGRFTISRDNAKNTLYLQMSSLKSEDTAMYYCARHATDYWGQGTTLTVSS VL: QIVLTQSPAIMSASPGEKVTMTCSASSSVSYMHWYQQKSGTSPKRWIYDTSKLASGVPARFSGSGSGTSYSLTISSMEAEDAATYYCQQWSSNPLTFGAGTKLELK ) is 99.8
